- System: Cells stably expressing Amyloid Precursor Protein (APP)
- ASSAY SUMMARY: In vitro BACE cell-based assay (HEK cell assay): Aβ40 in conditioned medium by sandwich ELISA
- MEASUREMENT CONTEXT: Homo sapiens, HEK293, 24 h, Aβ40 in conditioned medium after 24 h incubation
pIC50: −log10 of the molar value.
READOUT: pIC50

Guide cases for pIC50, answers given:
* C=CC[C@H](NC(=O)[C@@H](F)C(F)(F)F)[C@H](O)CN[C@H]1CC2(CCC2)Oc2ncc(CC(C)(C)C)cc21 [Example 137] | 6.20
* C=CC[C@H](NC(=O)c1cccnn1)[C@H](O)CN[C@H]1CC2(CCC2)Oc2ncc(CC(C)(C)C)cc21 [Example 57] | 6.64
* C=CC[C@H](NC(=O)[C@@H](C)OC)[C@H](O)CN[C@H]1CC2(CCC2)Oc2nc(F)c(CC(C)C)cc21 [Example 127] | 6.68
* C=CC[C@H](NC(=O)c1ccc(OC)nc1)[C@H](O)CN[C@H]1CC2(CCC2)Oc2ncc(CC(C)(C)C)cc21 [Example 63] | 5.86
* C=CC[C@H](NC(=O)COC)[C@H](O)CN[C@H]1CC2(CCC2)Oc2c1cc(CC(C)(C)C)nc2N(C)C [Example 48] | 5.55

(a) C=CC[C@H](NC(=O)C1(OC)CC1)[C@H](O)CN[C@H]1CC2(CCC2)Oc2ncc(CC(C)(C)C)cc21 [Example 151]
(b) CC#CC[C@H](NC(C)=O)[C@H](O)CN[C@H]1CC2(CCC2)Oc2ncc(CC(C)(C)C)cc21 [Example 86]
(c) C=CC[C@H](NC(=O)c1ccccc1F)[C@H](O)CN[C@H]1CC2(CCC2)Oc2ncc(CC(C)(C)C)cc21 [Example 99]
Query: Put these in order: smallest pIC50 first, largest last. Sort and list the labels as requested.
Result: c, a, b
(c: 5.84, a: 6.06, b: 6.98)

* * *

- SUBJECT OF TEST: BACE1 (Homo sapiens)
- Sequence (P56817 46-501, species assumed): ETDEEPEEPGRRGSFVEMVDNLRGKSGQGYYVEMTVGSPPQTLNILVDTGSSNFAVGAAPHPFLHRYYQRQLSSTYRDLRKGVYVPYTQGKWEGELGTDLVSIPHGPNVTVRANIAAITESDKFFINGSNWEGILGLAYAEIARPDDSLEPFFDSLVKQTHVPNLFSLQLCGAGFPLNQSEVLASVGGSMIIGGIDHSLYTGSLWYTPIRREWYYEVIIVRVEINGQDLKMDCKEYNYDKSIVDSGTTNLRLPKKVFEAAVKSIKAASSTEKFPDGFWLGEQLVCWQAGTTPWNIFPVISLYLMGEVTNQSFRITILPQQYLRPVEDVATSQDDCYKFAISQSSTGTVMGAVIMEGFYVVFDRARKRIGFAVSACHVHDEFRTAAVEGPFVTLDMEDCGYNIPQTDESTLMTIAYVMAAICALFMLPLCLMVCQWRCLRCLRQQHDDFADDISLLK
- ASSAY SUMMARY: In vitro enzymatic BACE FRET (fluorescence resonance energy transfer) assay
- Type: biochemical
READOUT: IC50 (nM)

- C=CC[C@H](NC(C)=O)[C@H](O)CN[C@H]1CC2(CCC2)Oc2c1cc(CC(C)(C)C)nc2NC [Example 44]: 65
- C=CC[C@H](NC(=O)c1ccns1)[C@H](O)CN[C@H]1CC2(CCC2)Oc2ncc(CC(C)(C)C)cc21 [Example 130]: 94
- C=CC[C@H](NC(=O)c1cccnc1F)[C@H](O)CN[C@H]1CC2(CCC2)Oc2ncc(CC(C)(C)C)cc21 [Example 67]: 199
- C=CC[C@H](NC(C)=O)[C@H](O)CN[C@H]1CC2(CCC2)Oc2ncc(C[C@H](C)C(F)(F)F)cc21 [Example 122]: 322
- C=CC[C@H](NC(=O)c1cccc2c1OCO2)[C@H](O)CN[C@H]1CC2(CCC2)Oc2ncc(CC(C)(C)C)cc21 [Example 103]: 216
- C=CC[C@H](NC(=O)[C@H](OC)C(C)C)[C@H](O)CN[C@H]1CC2(CCC2)Oc2ncc(CC(C)(C)C)cc21 [Example 150]: 2670

(A) C=CC[C@H](NC(=O)C(C)(C)F)[C@H](O)CN[C@H]1CC2(CCC2)Oc2ncc(CC(C)(C)C)cc21 [Example 141]
(B) C=CC[C@H](NC(=O)c1cccs1)[C@H](O)CN[C@H]1CC2(CCC2)Oc2ncc(CC(C)(C)C)cc21 [Example 128]
Query: Which gives the smaller IC50 number: A or B ? Returns: label corresponding to the selected item.
Result: B
(B: 169 nM, A: 951 nM)
